Test system: Haemonchus contortus
Assay: Nematocidal activity against Haemonchus contortus Haecon 5 strain isolated from helminth-free Merino weaner sheep after 6 days by larval development assay
Assay type: functional
This section presents compounds with their documented LD99 values.
Form entry: value (µM) — number only.

Sample answers from the record:
N#C/C(=C\c1ccc[nH]1)c1ccc(Cl)c(Cl)c1 = 12.5
N#C/C(=C\c1ccc[nH]1)c1ccccc1 = 100

Observed LD99 on Haemonchus contortus for `CCCCCCCCCCN1C(=O)[C@@H]2[C@H](C1=O)[C@H]1CC[C@@H]2O1` , please.
90

Observed LD99 on Haemonchus contortus for `N#C/C(=C\c1ccc[nH]1)c1ccc(Cl)cc1` , please.
25

Observed LD99 on Haemonchus contortus for `CCCCCCCCN1C(=O)[C@@H]2[C@H](C1=O)[C@H]1CC[C@@H]2O1` , please.
80

Observed LD99 on Haemonchus contortus for `N#C/C(=C\c1ccc[nH]1)c1ccc(F)cc1` , please.
50
